- SYSTEM_NAME: T1, mouse PCSK9 (mouse, UniProt Q80W65 35-694, limits assumed)
- T1 construct: also called mPCSK9; msPCK9
- ASSAY_NAME: SPR Biacore 3000, captured IgG, mPCSK9 injected, pH 7.4
VALUE_TYPE: pKd
Answers are plain numbers, as −log10 of the molar value.

Below, 2 binders whose answers are already recorded.
BINDER	pKd
6L1721 (antibody, V domains shown, L1L3-based mutant; Tested as full-length IgG) VH: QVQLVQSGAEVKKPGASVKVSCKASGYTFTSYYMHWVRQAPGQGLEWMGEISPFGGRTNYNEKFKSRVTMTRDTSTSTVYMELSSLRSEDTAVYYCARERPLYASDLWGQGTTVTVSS VL: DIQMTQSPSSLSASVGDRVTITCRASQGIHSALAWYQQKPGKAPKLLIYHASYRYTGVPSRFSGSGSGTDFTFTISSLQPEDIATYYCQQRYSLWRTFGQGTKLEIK	8.59
6L1721H23 (antibody, V domains shown, L1L3-based mutant; Full-length IgG) VH: QVQLVQSGAEVKKPGASVKVSCKASGYTFTSYYMHWVRQAPGQGLEWMGEIHPFGGRTNYNEKFKSRVTMTRDTSTSTVYMELSSLRSEDTAVYYCARERPLYASDLWGQGTTVTVSS VL: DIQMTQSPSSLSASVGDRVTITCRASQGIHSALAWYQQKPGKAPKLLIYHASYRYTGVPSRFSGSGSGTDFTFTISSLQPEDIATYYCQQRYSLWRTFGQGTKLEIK	8.14

Consider now this further binder.
Req: Entry 6L21H2335 (antibody, V domains shown) VH: QVQLVQSGAEVKKPGASVKVSCKASGYTFTSYYMHWVRQAPGQGLEWMGEIHPFGGRTNYNEKFKSRVTMTRDTSTSTVYMELSSLRSEDTAVYYCARERPLHASDLWGQGTTVTVSS VL: DIQMTQSPSSLSASVGDRVTITCRASQGISSALAWYQQKPGKAPKLLIYHASYRYTGVPSRFSGSGSGTDFTFTISSLQPEDIATYYCQQRYSLWRTFGQGTKLEIK : reported pKd = ?
Resp: 6.72
